# experimentalDetails: refractive index (Na D-line) (dimensionless)
# conditionsUsed: 298 K; 101.33 kPa; Liquid; Standard Abbe refractometry
reportedProperty: refractive index
Output: the number by itself.

Exam item: Looking for the measured refractive index of CC(=O)O [acetic acid] , can you help?
Marked response: 1.37203

Exam item: Looking for the measured refractive index of CC1CCCO1 (stereo unspecified) [2-methyltetrahydrofuran] , can you help?
Marked response: 1.40299

Exam item: Looking for the measured refractive index of COC1CCCC1 [methoxycyclopentane] , can you help?
Marked response: 1.41833

Exam item: Looking for the measured refractive index of CC(C)=O [acetone] , can you help?
Marked response: 1.3555

Exam item: Looking for the measured refractive index of O [water] , can you help?
Marked response: 1.3325

Exam item: Looking for the measured refractive index of O=Cc1ccco1 [2-furaldehyde] , can you help?
Marked response: 1.52364
